measure-name: melting point

COc1ccc(/C=C/C(=O)C2C(=O)C[C@H](c3ccc(OC)cc3)[C@H]([N+](=O)[O-])[C@H]2c2ccc3c(c2)OCO3)cc1 (stereo partly drawn); 154 to 156 °C
COc1ccc(C2C(C(=O)/C=C/c3ccc(OC)c(OC)c3)C(=O)C[C@H](c3ccc(OC)c(OC)c3)[C@@H]2[N+](=O)[O-])cc1 (stereo partly drawn); 158 to 160 °C

Turning now to a further compound:
Task: Name the reported melting point value associated with the compound COc1ccc([C@H]2C(C(=O)/C=C/c3ccc(O)c(OC)c3)C(=O)C[C@H](c3ccc(O)c(OC)c3)[C@@H]2[N+](=O)[O-])cc1 (stereo partly drawn)
Output: 83 to 85 °C

====

measure-name: melting point

Take a look at these entries with their results.
COc1ccc(/C=C/C(=O)C2C(=O)CC(c3ccc(OC)cc3)[C@H]([N+](=O)[O-])C2c2ccc(OC)cc2)cc1 (stereo partly shown) [IX-1]; 200 to 202 °C
COc1ccc([C@H]2C(C(=O)/C=C/c3ccccc3)C(=O)C[C@H](c3ccccc3)[C@@H]2[N+](=O)[O-])cc1 (stereo partly shown) [IX-12]; 108 to 110 °C
COc1ccc(/C=C/C(=O)C2C(=O)C[C@H](c3ccc(OC)cc3)[C@H]([N+](=O)[O-])[C@H]2c2ccc(OC)c(OC)c2)cc1 (stereo partly shown) [IX-2]; 126 to 128 °C
COc1ccc(/C=C/C(=O)C2C(=O)C[C@H](c3ccc(OC)cc3)[C@H]([N+](=O)[O-])[C@H]2c2ccco2)cc1 (stereo partly shown) [IX-7]; 192 °C
COc1ccc(/C=C/C(=O)C2C(=O)C[C@H](c3ccc(OC)cc3)[C@H]([N+](=O)[O-])C2c2ccc(Cl)cc2)cc1 (stereo partly shown) [IX-4]; 156 to 158 °C
COc1ccc(/C=C/C(=O)C2C(=O)C[C@H](c3ccc(OC)cc3)[C@H]([N+](=O)[O-])[C@H]2c2ccccc2)cc1 (stereo partly shown) [IX-3]; 164 to 165 °C

Task: Data request, read-out melting point, for COc1ccc(/C=C/C(=O)C2C(=O)C[C@H](c3ccc(OC)cc3)[C@H]([N+](=O)[O-])[C@H]2/C=C/c2ccccc2)cc1 (stereo partly shown) [IX-9]
Output: 88 to 90 °C

====

The reader will find reported melting point values listed item by item below.

Take a look at these entries with their results.
CCCC[C@H]1C(C(=O)/C=C/c2ccc(OC)cc2)C(=O)C[C@H](c2ccc(OC)cc2)[C@@H]1[N+](=O)[O-] (stereo partly shown); 127 to 129 °C
COc1ccc(/C=C/C(=O)C2C(=O)C[C@H](c3ccc(OC)cc3)[C@H]([N+](=O)[O-])[C@H]2C2CCCCC2)cc1 (stereo partly shown); 203 to 205 °C

Task: I would be grateful if you could share the reported melting point for COc1ccc(/C=C/C(=O)C2C(=O)C[C@H](c3ccc(OC)cc3)[C@H]([N+](=O)[O-])[C@H]2c2cccs2)cc1 (stereo partly shown) .
Output: 160 to 162 °C

Task: COc1ccc([C@H]2C(C(=O)/C=C/c3ccc(OCc4ccccc4)c(OC)c3)C(=O)C[C@H](c3ccc(OCc4ccccc4)cc3)[C@@H]2[N+](=O)[O-])cc1 (stereo partly shown) , same question.
Output: 76 to 78 °C
